experiment: Apparent intrinsic permeability in human Caco2 cells at pH 6.5; format: ADME, cell-based; conditions: Caco-2, pH 6.5
Property name: Papp (nm/s)

Compound structure	Property name	Units symbol	Recorded result
CC(C)Cn1cc(C#N)c2cc(Oc3ccc(NC(=O)[C@@H]4CCCN4)cc3)ccc21	Papp	nm/s	134

---

molecular target: 6-phosphofructo-2-kinase/fructose-2,6-bisphosphatase 3 (Homo sapiens); experiment: Inhibition of recombinant human PFKFB3 using fructose 6 phosphate as substrate assessed as ADP generation after 1 hr by ADP Glo assay
Sequence (Q16875 whole entry): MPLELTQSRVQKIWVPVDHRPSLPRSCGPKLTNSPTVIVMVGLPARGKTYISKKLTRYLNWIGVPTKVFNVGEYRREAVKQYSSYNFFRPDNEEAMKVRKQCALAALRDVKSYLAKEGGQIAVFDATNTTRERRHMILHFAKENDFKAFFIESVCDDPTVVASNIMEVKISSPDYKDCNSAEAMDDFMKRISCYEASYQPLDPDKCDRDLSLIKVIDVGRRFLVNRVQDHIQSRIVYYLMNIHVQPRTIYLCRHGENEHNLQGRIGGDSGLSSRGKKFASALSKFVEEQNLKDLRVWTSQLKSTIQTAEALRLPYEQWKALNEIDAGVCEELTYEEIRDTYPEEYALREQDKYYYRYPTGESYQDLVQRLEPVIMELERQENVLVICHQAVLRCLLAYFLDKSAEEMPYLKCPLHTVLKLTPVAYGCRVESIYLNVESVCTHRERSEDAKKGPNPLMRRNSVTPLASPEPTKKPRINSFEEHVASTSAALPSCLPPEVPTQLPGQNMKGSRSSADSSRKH

Compound structure	Units symbol	Modifier sign	IC50
CN1Cc2cc(-n3cc(C#N)c4cc(Oc5ccc(NC(=O)[C@@H]6CCCN6)cc5)ccc43)ccc2C1=O	nM	=	8
CCn1c(N)c(C#N)c2cc(Oc3ccc(NC(=O)CN)cc3)ccc21	nM	=	514
CC(C)Cn1cc(C#N)c2cc(Cc3ccc(NC(=O)[C@@H]4CCCN4)cc3)ccc21	nM	=	199
O=C(/C=C/c1cccnc1)c1ccncc1	nM	>	100000
CN(C)CCn1cc(C#N)c2cc(Oc3ccc(NC(=O)[C@@H]4CCCN4)cc3)ccc21	nM	=	256
CC(C)Cn1cc(C#N)c2cc(Nc3ccc(NC(=O)[C@@H]4CCCN4)cc3)ccc21	nM	=	1570
Cn1cc(-c2cn(C)c3ccc(Oc4ccc(NC(=O)[C@@H]5CCCN5)cc4)cc23)cn1	nM	=	21
CCn1cc(C#N)c2cc(Oc3ccc(NC(=O)[C@@H]4CCN4)cc3)ccc21	nM	=	86
CC(C)Cn1cc(C#N)c2cc(Sc3ccc(NC(=O)[C@@H]4CCCN4)cc3)ccc21	nM	=	111
CC(=O)Nc1ccc(Oc2ccc3[nH]c(N)c(C#N)c3c2)cc1	nM	>	100000
CC(C)Cn1cc(C#N)c2cc(Oc3ccc(NC(=O)[C@@H]4CCCN4)cc3)ccc21	nM	=	23
Cn1cc(-c2c[nH]c3ccc(Oc4ccc(NC(=O)[C@@H]5CCCN5)cc4)cc23)cn1	nM	=	114
CCn1cc(C#N)c2cc(Oc3ccc(NC(=O)CNC)cc3)ccc21	nM	=	830
N#Cc1c(N)[nH]c2ccc(Oc3ccc(NC(=O)[C@H](N)CO)cc3)cc12	nM	>	100000
Cc1noc(C)c1Cn1nc(C#N)c2cc(Oc3ccc(NC(=O)[C@@H]4CCCN4)cc3)ccc21	nM	=	3
CCn1cc(C#N)c2cc(Oc3ccc(NC(=O)CN)cc3)ccc21	nM	=	562
N#Cc1cn(CC2CCOCC2)c2ccc(Oc3ccc(NC(=O)[C@@H]4CCCN4)cc3)cc12	nM	=	48
CC(C)Cn1c(N)c(C#N)c2cc(Oc3ccc(NC(=O)CN)cc3)ccc21	nM	=	177
N#Cc1c(N)[nH]c2ccc(Oc3ccc(NC(=O)[C@@H](N)CO)cc3)cc12	nM	=	575
Cn1c(N)c(C#N)c2cc(Oc3ccc(NC(=O)CN)cc3)ccc21	nM	=	815

---

Entries and their measured IC50 follow.
target: 6-phosphofructo-2-kinase/fructose-2,6-bisphosphatase 2 (Homo sapiens, UniProt O60825); assay: Inhibition of recombinant human PFKFB2 using fructose 6 phosphate as substrate assessed as ADP generation after 1 hr by ADP Glo assay
Sequence (O60825 whole entry): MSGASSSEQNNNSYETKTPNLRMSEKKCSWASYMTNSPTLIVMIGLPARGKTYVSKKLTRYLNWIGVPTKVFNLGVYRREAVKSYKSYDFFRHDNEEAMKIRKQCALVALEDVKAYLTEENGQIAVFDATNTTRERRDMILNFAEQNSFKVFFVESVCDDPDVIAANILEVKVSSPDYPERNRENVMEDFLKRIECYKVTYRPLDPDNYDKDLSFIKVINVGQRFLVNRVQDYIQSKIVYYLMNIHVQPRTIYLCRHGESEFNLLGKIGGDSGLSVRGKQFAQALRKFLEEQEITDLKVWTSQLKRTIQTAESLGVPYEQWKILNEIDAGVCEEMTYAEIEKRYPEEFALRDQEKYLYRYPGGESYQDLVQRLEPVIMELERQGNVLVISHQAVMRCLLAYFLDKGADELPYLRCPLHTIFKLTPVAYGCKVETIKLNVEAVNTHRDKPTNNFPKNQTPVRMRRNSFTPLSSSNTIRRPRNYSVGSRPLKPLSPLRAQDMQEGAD

Compound structure	IC50
CC(=O)Nc1ccc(Oc2ccc3[nH]c(N)c(C#N)c3c2)cc1	> 100 µM
CN(C)CCn1cc(C#N)c2cc(Oc3ccc(NC(=O)[C@@H]4CCCN4)cc3)ccc21	> 100 µM
CCn1cc(C#N)c2cc(Oc3ccc(NC(=O)[C@H]4CCCN4)cc3)ccc21	> 100 µM
